biological target: Cathepsin S (Homo sapiens); experiment: Cathepsin S inhibition, fluorogenic peptide substrate kinetic assay; type: biochemical; details: Cathepsin S inhibition constant; pH5.5, 20 minutes preincubation at room temperature; read-out: Ki Cat. S
Sequence (P25774 115-331, species assumed): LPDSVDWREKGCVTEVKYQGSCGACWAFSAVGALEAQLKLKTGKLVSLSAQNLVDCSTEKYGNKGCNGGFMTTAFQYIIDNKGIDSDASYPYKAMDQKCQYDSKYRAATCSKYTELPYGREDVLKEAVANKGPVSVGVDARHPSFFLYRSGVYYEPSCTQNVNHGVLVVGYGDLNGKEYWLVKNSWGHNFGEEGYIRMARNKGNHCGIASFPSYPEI
pKi: −log10 of the molar value.
Parameter: pKi. Scope: all listed entries.

{"columns": ["entry smiles", "experimental result"],
 "data": [
  ["CC(=O)N1CCN(C(=O)C[C@@H](CC2CCCCC2)C(=O)N[C@@H](C)CNc2ccc(OC(F)(F)F)cc2)CC1", "6.00 to 7.00"],
  ["CC(C)[C@@H](CN1CC(C)(C)c2cc(F)ccc21)NC(=O)O[C@@H](CS(=O)(=O)Cc1ccccc1)C(=O)N1CCOCC1", "5.00 to 6.00"],
  ["CCC[C@@H](CNc1ccc(OC(F)(F)F)cc1)NC(=O)[C@@H](CC(=O)N1CCOCC1)c1ccccc1", "> 7.00"],
  ["C[C@@H]1CN(C(=O)C[C@@H](CC2CCCCC2)C(=O)N[C@@H](C)CNc2ccc(OC(F)(F)F)cc2)C[C@H](C)O1", "> 7.00"],
  ["COc1ccc(NCCNC(=O)[C@H](CC2CCCCC2)NC(=O)N2CCOCC2)cc1", "> 7.00"]
]}

Turning now to a further record.
Test item COc1ccc(NC[C@H](C)NC(=O)[C@H](CC2CCCCC2)NC(=O)N2CCOCC2)cc1 ; Cathepsin S (Homo sapiens); reported pKi was > 7.00

###

Parameter: pKi. Scope: all listed entries.
target: Cathepsin S (Homo sapiens); test: Cathepsin S inhibition, fluorogenic peptide substrate kinetic assay;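 further: cleavage rate of a coumarin-labelled peptide substrate (50 µM) read as fluorescence increase at Ex 380 nm and Em 450 nm, relative to inhibitor-free control reactions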; assay type: biochemical; details: Cathepsin S inhibition constant; pH5.5, 20 minutes preincubation at room temperature; read-out: Ki Cat. S
pKi: −log10 of the molar value.

Check out these entries, answers already filled in.
{"columns": ["compound", "pKi"],
 "data": [
  ["CC[C@@H](CN1CC(C)(C)c2cc(F)ccc21)NC(=O)O[C@@H](CC1CCCCC1)C(=O)N1CCOCC1", "> 7.00"],
  ["CC(C)[C@@H](CNc1ccc(OC(F)(F)F)cc1)NC(=O)[C@@H](CC(=O)N1CCOCC1)C1CCCCC1", "> 7.00"],
  ["O=C(NCCNc1ccc(F)cc1)O[C@@H](CC1CCCCC1)C(=O)N1CCOCC1", "5.00 to 6.00"],
  ["C[C@@H](CN1CC(C)(C)c2cc(F)ccc21)NC(=O)[C@@H](CC(=O)N1CCOCC1)c1ccc(C(F)(F)F)cc1", "5.00 to 6.00"],
  ["C[C@@H](CNc1ccc(OC(F)(F)F)cc1)NC(=O)[C@H](CC1CCCC1)[C@@H](C)C(=O)N1CCOCC1", "6.00 to 7.00"]
]}

Test item CC[C@@H](CNc1ccc(OC(F)(F)F)cc1)NC(=O)[C@H](CCC1CCCC1)CC(=O)N1CCOCC1 ; Cathepsin S (Homo sapiens); reported pKi was > 7.00

Test item CC1(C)CN([C@H]2COC[C@@H]2NC(=O)O[C@@H](CC2CCCCC2)C(=O)N2CCOCC2)c2ccc(F)cc21 ; Cathepsin S (Homo sapiens); reported pKi was 5.00 to 6.00

Test item CC(=O)NS(=O)(=O)c1ccc(NC[C@H](C)NC(=O)O[C@@H](CC2CCCCC2)C(=O)N2CCOCC2)cc1 ; Cathepsin S (Homo sapiens); reported pKi was 5.00 to 6.00

Test item CC(C)[C@@H](CN1CC(C)(C)c2cc(F)ccc21)NC(=O)O[C@H](C(=O)N1CCOCC1)C1CCCCC1 ; Cathepsin S (Homo sapiens); reported pKi was > 7.00

Test item C[C@@H](CN1CC(C)(C)c2cc(F)ccc21)NC(=O)[C@H](CC1CCCCC1)NC(=O)N1CCOCC1 ; Cathepsin S (Homo sapiens); reported pKi was > 7.00

Test item C[C@@H](CNc1ccc(OC(F)F)cc1)NC(=O)O[C@@H](CC(C)(C)C)C(=O)N1CCOCC1 ; Cathepsin S (Homo sapiens); reported pKi was 5.00 to 6.00
